Organism: Rattus norvegicus
procedureSummary: Open TG-GATES - Regimen: Daily Repeat
Type: toxicity, organism-based, Sprague-Dawley
Design: regimen Daily Repeat, gender Male, age 6 weeks
measurementSetup: in vivo, po, 1000 mg/kg, […], tissue Plasma, route gavage, dose level High, time 14 day
Catalogue of compounds with associated TBIL
property: TBIL (mg/dL)

1) CCN1CCCC1CNC(=O)c1cc(S(N)(=O)=O)ccc1OC (centres undefined) [SULPIRIDE]
0.056
2) O=C(N[C@H](CO)[C@H](O)c1ccc([N+](=O)[O-])cc1)C(Cl)Cl
0.046
3) CC(C)(S)[C@@H](N)C(=O)O
0.058
4) O=C(O)c1cccnc1
0.012

* * *

Organism: Rattus norvegicus
procedureSummary: Open TG-GATES - Regimen: Single
Assay type: toxicity, organism-based, Sprague-Dawley
Parameters: regimen Single, gender Male, age 6 weeks
measurementSetup: in vivo, po, 0 mg/kg, 6 h, tissue Plasma, route gavage, dose level Control
property: PL

1) Oc1ncnc2[nH]ncc12 [ALLOPURINOL]
132 mg/dL
2) CCc1oc2ccccc2c1C(=O)c1cc(I)c(O)c(I)c1 [BENZIODARONE]
126.6 mg/dL
3) C#C[C@]1(O)CC[C@H]2[C@@H]3CCc4cc(O)ccc4[C@H]3CC[C@@]21C [ETHINYL ESTRADIOL]
122.6 mg/dL
4) CN1C(=O)OC(C)(C)C1=O [TRIMETHADIONE]
145.4 mg/dL
5) O=C(N[C@H](CO)[C@H](O)c1ccc([N+](=O)[O-])cc1)C(Cl)Cl [CHLORAMPHENICOL]
136.2 mg/dL
6) C[C@](N)(Cc1ccc(O)c(O)c1)C(=O)O [METHYLDOPA]
128.4 mg/dL
7) CC(=N)S [THIOACETAMIDE]
140.6 mg/dL
8) Nc1nc(N)c2nc(-c3ccccc3)c(N)nc2n1
146.8 mg/dL
9) CCN1CCCC1CNC(=O)c1cc(S(N)(=O)=O)ccc1OC (stereo unspecified) [SULPIRIDE]
128.6 mg/dL
10) O=C(O)c1cccnc1 [NIACIN]
141 mg/dL
11) CCC(C)(C)C(=O)O[C@H]1C[C@@H](C)C=C2C=C[C@H](C)[C@H](CC[C@@H]3C[C@@H](O)CC(=O)O3)[C@H]21 [SIMVASTATIN]
120.4 mg/dL

* * *

Catalogue of compounds with associated WBC
Organism: Rattus norvegicus
procedureSummary: Open TG-GATES - Regimen: Daily Repeat
Assay type: toxicity, organism-based, Sprague-Dawley
Parameters: regimen Daily Repeat, gender Male, age 6 weeks
measurementSetup: in vivo, po, 0 mg/kg, 72 h, tissue Blood, route gavage, dose level Control, time 3 day
property: WBC (x10_2/uL)

1. CCSCC[C@H](N)C(=O)O [ETHIONINE]
113.1
2. O=C(O)c1cccnc1 [NIACIN]
116.2
3. C#C[C@]1(O)CC[C@H]2[C@@H]3CCc4cc(O)ccc4[C@H]3CC[C@@]21C [ETHINYL ESTRADIOL]
93.3
4. Oc1ncnc2[nH]ncc12 [ALLOPURINOL]
127.2
5. CC(=N)S [THIOACETAMIDE]
125.1
6. C[C@](N)(Cc1ccc(O)c(O)c1)C(=O)O [METHYLDOPA]
72.1

* * *

Species: Rattus norvegicus
procedureSummary: Open TG-GATES - Regimen: Daily Repeat
Assay type: toxicity, organism-based, Sprague-Dawley
Set-up: regimen Daily Repeat, gender Male, age 6 weeks
measurementSetup: in vivo, po, 0 mg/kg, 72 h, tissue Kidney, route gavage, dose level Control, time 3 day
Catalogue of compounds with associated KIDNEY_R
property: KIDNEY_R (g)

1) CCC(C)(C)C(=O)O[C@H]1C[C@@H](C)C=C2C=C[C@H](C)[C@H](CC[C@@H]3C[C@@H](O)CC(=O)O3)[C@H]21
1
2) CCSCC[C@H](N)C(=O)O
1.1
3) CCN1CCCC1CNC(=O)c1cc(S(N)(=O)=O)ccc1OC (centres undefined) [SULPIRIDE]
1
4) O=C(N[C@H](CO)[C@H](O)c1ccc([N+](=O)[O-])cc1)C(Cl)Cl
1.1

* * *

Organism: Rattus norvegicus
procedureSummary: Open TG-GATES - Regimen: Single
Type: toxicity, organism-based, Sprague-Dawley
Design: regimen Single, gender Male, age 6 weeks
measurementSetup: in vivo, po, 0 mg/kg, 6 h, tissue Plasma, route gavage, dose level Control
Kindly apply the following: criterion met if ALP is less than 1000 IU/L, criterion not met in every other case.

1) CC(C)(S)[C@@H](N)C(=O)O
criterion not met
2) CN1C(=O)OC(C)(C)C1=O
criterion not met
3) CCc1oc2ccccc2c1C(=O)c1cc(I)c(O)c(I)c1
criterion met
4) CCN1CCCC1CNC(=O)c1cc(S(N)(=O)=O)ccc1OC (stereo unspecified) [SULPIRIDE]
criterion not met
5) CCC(C)(C)C(=O)O[C@H]1C[C@@H](C)C=C2C=C[C@H](C)[C@H](CC[C@@H]3C[C@@H](O)CC(=O)O3)[C@H]21
criterion met
6) CC(=O)Oc1cc(C(C)C)c(OCCN(C)C)cc1C
criterion not met

* * *

Catalogue of compounds with associated Na
Species: Rattus norvegicus
procedureSummary: Open TG-GATES - Regimen: Daily Repeat
Assay type: toxicity, organism-based, Sprague-Dawley
Design: regimen Daily Repeat, gender Male, age 6 weeks
measurementSetup: in vivo, po, 0 mg/kg, […], tissue Plasma, route gavage, dose level Control, time 7 day
property: Na (meq/L)

1. CCN1CCCC1CNC(=O)c1cc(S(N)(=O)=O)ccc1OC (centres undefined) [SULPIRIDE]
141.2
2. CC(C)C(=O)Nc1ccc([N+](=O)[O-])c(C(F)(F)F)c1 [FLUTAMIDE]
141
3. Oc1ncnc2[nH]ncc12 [ALLOPURINOL]
136.6
4. CN1C(=O)OC(C)(C)C1=O [TRIMETHADIONE]
144
5. C[C@]12CCC(=O)C=C1CC[C@@H]1[C@@H]2CC[C@@]2(C)[C@H]1CC[C@]2(C)O [METHYLTESTOSTERONE]
142
6. CC(C)(S)[C@@H](N)C(=O)O [PENICILLAMINE]
142.2
7. CCc1oc2ccccc2c1C(=O)c1cc(I)c(O)c(I)c1 [BENZIODARONE]
139.6
8. Nc1nc(N)c2nc(-c3ccccc3)c(N)nc2n1
142.4
9. CCC(C)(C)C(=O)O[C@H]1C[C@@H](C)C=C2C=C[C@H](C)[C@H](CC[C@@H]3C[C@@H](O)CC(=O)O3)[C@H]21 [SIMVASTATIN]
142.4

* * *

Organism: Rattus norvegicus
procedureSummary: Open TG-GATES - Regimen: Daily Repeat
Format: toxicity, organism-based, Sprague-Dawley
Set-up: regimen Daily Repeat, gender Male, age 6 weeks
measurementSetup: in vivo, po, 0 mg/kg, […], tissue Plasma, route gavage, dose level Control, time 28 day
property: CRE (mg/dL)

1. C#C[C@]1(O)CC[C@H]2[C@@H]3CCc4cc(O)ccc4[C@H]3CC[C@@]21C
0.2
2. CN1C(=O)OC(C)(C)C1=O
0.2
3. CCC(C)(C)C(=O)O[C@H]1C[C@@H](C)C=C2C=C[C@H](C)[C@H](CC[C@@H]3C[C@@H](O)CC(=O)O3)[C@H]21
0.7
4. CC(C)(S)[C@@H](N)C(=O)O
0.3
5. Oc1ncnc2[nH]ncc12
0.4
6. CCN1CCCC1CNC(=O)c1cc(S(N)(=O)=O)ccc1OC (stereo unspecified) [SULPIRIDE]
0.3

* * *

Species: Rattus norvegicus
procedureSummary: Open TG-GATES - Regimen: Daily Repeat
Format: toxicity, organism-based, Sprague-Dawley
Set-up: regimen Daily Repeat, gender Male, age 6 weeks
measurementSetup: in vivo, po, 100 mg/kg, […], route gavage, dose level Low, time 14 day
Catalogue of molecules with associated TERMINAL_BW
property: TERMINAL_BW (g)

1) CCN1CCCC1CNC(=O)c1cc(S(N)(=O)=O)ccc1OC (centres undefined) [SULPIRIDE]
328.7
2) CC(C)(S)[C@@H](N)C(=O)O
325.3
3) O=C(O)c1cccnc1
326.9
4) O=C(N[C@H](CO)[C@H](O)c1ccc([N+](=O)[O-])cc1)C(Cl)Cl
333.6

* * *

Species: Rattus norvegicus
procedureSummary: Open TG-GATES - Regimen: Daily Repeat
Format: toxicity, organism-based, Sprague-Dawley
Set-up: regimen Daily Repeat, gender Male, age 6 weeks
measurementSetup: in vivo, po, 300 mg/kg, […], tissue Blood, route gavage, dose level Middle, time 7 day
property: Ht (%)

1) O=C(O)c1cccnc1 [NIACIN]
41.4
2) CCN1CCCC1CNC(=O)c1cc(S(N)(=O)=O)ccc1OC (centres undefined) [SULPIRIDE]
41.8
3) O=C(N[C@H](CO)[C@H](O)c1ccc([N+](=O)[O-])cc1)C(Cl)Cl [CHLORAMPHENICOL]
42.3
4) CC(C)(S)[C@@H](N)C(=O)O [PENICILLAMINE]
40.7
